- experiment.summary: in vivo
- Parameters: species or system NSG mice
- measurement.conditions: NSG, mouse, iv, 20 mg/kg, T1/2 elimination
parameter.measured: half-life (min)

[[record]]
smiles = "CC(C)CCC[C@@H](C)[C@H]1CC[C@H]2[C@@H]3C[C@@H](NCCc4cnc[nH]4)[C@@]4(O)C[C@@H](O)CC[C@]4(C)[C@H]3CC[C@]12C"
measurement = 36


* * *

- Test system: B16F10 cells
- experiment.summary: RT-qPCR of LXR-responsive genes
- Format: cell-based, mouse
- measurement.conditions: B16F10, siCT, 8 h; 2.5 µM DDA, 10 µM 22(R)HC, 1 µM GW, 100 nM TO; vs vehicle
parameter.measured: ABCA1 mRNA (fold)

[[record]]
compound = "O=S(=O)(c1ccccc1)N(CC(F)(F)F)c1ccc(C(O)(C(F)(F)F)C(F)(F)F)cc1"
parameter_measured = "ABCA1 mRNA"
uom = "fold"
measurement = 8.5

[[record]]
compound = "CC(C)CC[C@@H](O)[C@@H](C)[C@H]1CC[C@H]2[C@@H]3CC=C4C[C@@H](O)CC[C@]4(C)[C@H]3CC[C@]12C [22(R)HC, 22(R)-hydroxycholesterol]"
parameter_measured = "ABCA1 mRNA"
uom = "fold"
measurement = 12.5

[[record]]
compound = "CC(C)CCC[C@@H](C)[C@H]1CC[C@H]2[C@@H]3C[C@@H](NCCc4cnc[nH]4)[C@@]4(O)C[C@@H](O)CC[C@]4(C)[C@H]3CC[C@]12C"
parameter_measured = "ABCA1 mRNA"
uom = "fold"
measurement = 0.4

[[record]]
compound = "O=C(O)Cc1cccc(OCCCN(Cc2cccc(C(F)(F)F)c2Cl)CC(c2ccccc2)c2ccccc2)c1"
parameter_measured = "ABCA1 mRNA"
uom = "fold"
measurement = 14.3


* * *

- Tested on: B16F10 cells
- experiment.summary: RT-qPCR of LXR-responsive genes
- Format: cell-based, mouse
- measurement.conditions: B16F10, siLXRβ, 8 h; 2.5 µM DDA, 10 µM 22(R)HC, 1 µM GW, 100 nM TO; vs vehicle
parameter.measured: NOR1 mRNA (fold)

[[record]]
compound = "CC(C)CCC[C@@H](C)[C@H]1CC[C@H]2[C@@H]3C[C@@H](NCCc4cnc[nH]4)[C@@]4(O)C[C@@H](O)CC[C@]4(C)[C@H]3CC[C@]12C"
measurement = 0.3

[[record]]
compound = "CC(C)CC[C@@H](O)[C@@H](C)[C@H]1CC[C@H]2[C@@H]3CC=C4C[C@@H](O)CC[C@]4(C)[C@H]3CC[C@]12C [22(R)HC, 22(R)-hydroxycholesterol]"
measurement = 0.9

[[record]]
compound = "O=S(=O)(c1ccccc1)N(CC(F)(F)F)c1ccc(C(O)(C(F)(F)F)C(F)(F)F)cc1"
measurement = 0.7

[[record]]
compound = "O=C(O)Cc1cccc(OCCCN(Cc2cccc(C(F)(F)F)c2Cl)CC(c2ccccc2)c2ccccc2)c1"
measurement = 1.0


* * *

- experiment.summary: DDA concentrations in spleen and bone marrow
- Format: in vivo, NSG mice
- measurement.conditions: NSG, mouse, bone marrow, ip; daily i.p. 20 mg/kg for 21 days; read-out: DDA concentration in the bone marrow
parameter.measured: concentration at 21 days (µM)

[[record]]
smiles = "CC(C)CCC[C@@H](C)[C@H]1CC[C@H]2[C@@H]3C[C@@H](NCCc4cnc[nH]4)[C@@]4(O)C[C@@H](O)CC[C@]4(C)[C@H]3CC[C@]12C"
uom = "µM"
measurement = 3.48

